tested on: UACC-257; assay: NCI tumour cell line growth inhibition, 48 h
The source made the active and inactive calls. Rule as the data show it: active = GI50 up to about 1.1 µM and inactive = higher.
List of GI50 values.

>  <MOLECULE>
COC1=CC(=O)C[C@@H](C)[C@]12Oc1c(Cl)c(OC)cc(OC)c1C2=O

>  <PARAMETER_MEASURED>
GI50

>  <RESULT>
> 20.5 µM (inactive)

$$$$
>  <MOLECULE>
CCOC(=O)C12CCCC1(O)N(NC(N)=O)C(C)=C2C(=O)OC (stereo not given)

>  <PARAMETER_MEASURED>
GI50

>  <RESULT>
> 100 µM (inactive)

$$$$
>  <MOLECULE>
COc1ccc(/C=C2\CSC/C(=C\c3ccc(OC)c(OC)c3OC)C2=O)c(OC)c1OC

>  <PARAMETER_MEASURED>
GI50

>  <RESULT>
42.3 µM (inactive)

$$$$
>  <MOLECULE>
COc1ccc2c(c1)O[C@@H]1c3ccc(OC)cc3OC[C@H]21

>  <PARAMETER_MEASURED>
GI50

>  <RESULT>
> 10 µM (inactive)

$$$$

Next up:
**Q:** Quick check: GI50 of `CCOC(=O)C(=CNC(=S)Nc1c(CC)cccc1CC)C(=O)OCC` ?
**A:** > 100 µM (inactive)
